Experimental Target: h-GABA-A α5β3γ2 (Homo sapiens, UniProt P18507+P31644)
Sequence (P31644 32-462): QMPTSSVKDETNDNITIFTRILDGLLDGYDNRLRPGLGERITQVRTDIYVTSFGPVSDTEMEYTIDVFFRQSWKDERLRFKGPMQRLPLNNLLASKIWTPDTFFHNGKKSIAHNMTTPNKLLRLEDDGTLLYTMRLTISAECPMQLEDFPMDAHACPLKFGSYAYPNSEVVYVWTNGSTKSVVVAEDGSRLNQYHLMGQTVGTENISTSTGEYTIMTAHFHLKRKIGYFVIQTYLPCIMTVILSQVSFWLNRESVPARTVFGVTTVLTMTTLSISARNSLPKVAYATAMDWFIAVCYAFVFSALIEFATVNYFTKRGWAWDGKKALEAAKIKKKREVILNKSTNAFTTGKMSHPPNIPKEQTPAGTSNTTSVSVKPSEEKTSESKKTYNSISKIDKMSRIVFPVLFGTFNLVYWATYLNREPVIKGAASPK
Sequence (P28472 26-473 partner): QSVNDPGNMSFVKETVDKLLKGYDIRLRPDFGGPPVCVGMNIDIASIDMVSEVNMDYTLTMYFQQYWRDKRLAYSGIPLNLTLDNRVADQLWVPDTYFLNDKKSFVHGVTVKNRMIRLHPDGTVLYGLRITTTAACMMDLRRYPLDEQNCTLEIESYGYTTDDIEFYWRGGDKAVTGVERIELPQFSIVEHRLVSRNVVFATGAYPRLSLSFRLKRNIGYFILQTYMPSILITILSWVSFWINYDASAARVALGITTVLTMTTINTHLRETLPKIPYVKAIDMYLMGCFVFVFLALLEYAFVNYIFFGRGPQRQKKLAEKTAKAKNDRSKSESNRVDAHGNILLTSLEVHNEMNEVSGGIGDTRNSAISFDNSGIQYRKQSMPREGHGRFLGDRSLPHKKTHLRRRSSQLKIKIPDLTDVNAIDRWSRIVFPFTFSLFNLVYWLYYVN
Sequence (P18507 40-475): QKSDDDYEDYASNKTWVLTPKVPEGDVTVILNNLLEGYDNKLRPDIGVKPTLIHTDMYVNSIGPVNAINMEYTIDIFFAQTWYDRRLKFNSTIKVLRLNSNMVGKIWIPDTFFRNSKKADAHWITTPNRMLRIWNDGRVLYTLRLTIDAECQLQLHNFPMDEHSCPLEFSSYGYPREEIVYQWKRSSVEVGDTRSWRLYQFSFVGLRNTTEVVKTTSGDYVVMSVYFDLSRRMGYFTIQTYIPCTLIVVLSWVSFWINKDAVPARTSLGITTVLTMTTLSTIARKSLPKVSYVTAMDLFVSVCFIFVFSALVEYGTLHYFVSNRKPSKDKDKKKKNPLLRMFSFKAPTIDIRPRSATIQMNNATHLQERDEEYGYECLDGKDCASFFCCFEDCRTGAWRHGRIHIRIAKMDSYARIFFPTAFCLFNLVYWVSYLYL
Assay Overview: Two-electrode voltage clamp electrophysiology in Xenopus laevis oocytes expressing GABAA receptors, modulation of GABA EC20 current
Format: cell-based
Set-up: host or cells: Xenopus laevis oocytes micro-injected with RNA transcripts of the subunits
Cond: test compound at approx. 30 fold its Ki, GABA at EC20; Table 1
Metric Name: Fold increase h-GABA-A α5β3γ2 oocyte

In [3]: df
Out[3]:
                                    molecule                       experimental_target  experimental_value
 0  Cc1ccc(-c2noc(C)c2Cn2ncc(N3CC4(CC(C)CO4)C3)cc2=O)nn1 (single isomer, unassigned) [Example 240]  h-GABA-A α5β3γ2 (Homo sapiens, UniProt P18507+P31644)                1.94
 1  Cc1onc(-c2ccc(Cl)nc2)c1Cn1ncc(N2CC(OC(F)F)C2)cc1=O  h-GABA-A α5β3γ2 (Homo sapiens, UniProt P18507+P31644)                1.99
 2  Cc1ccc(-c2noc(C)c2Cn2ncc(N3CC4(CCCCC4)C3)cc2=O)cn1  h-GABA-A α5β3γ2 (Homo sapiens, UniProt P18507+P31644)                2.18
 3  COC1CCN(c2cnn(Cc3c(-c4ccc(C)nc4)noc3C)c(=O)c2)CC1  h-GABA-A α5β3γ2 (Homo sapiens, UniProt P18507+P31644)                2.32
 4  Cc1onc(-c2ccc(Cl)nc2)c1Cn1ncc(N2CCC3(CCOCC3)CC2)cc1=O  h-GABA-A α5β3γ2 (Homo sapiens, UniProt P18507+P31644)                2.07
 5  Cc1ccc(-c2noc(C)c2Cn2ncc(N3CC(Oc4cccnc4)C3)cc2=O)cn1  h-GABA-A α5β3γ2 (Homo sapiens, UniProt P18507+P31644)                2.34
 6  COC1CN(c2cnn(Cc3c(-c4ccc(Cl)cc4)noc3C)c(=O)c2)C1  h-GABA-A α5β3γ2 (Homo sapiens, UniProt P18507+P31644)                1.43
 7  Cc1ccc(-c2noc(C)c2Cn2ncc(N3CCN(C(C)C)[C@@H](C)C3)cc2=O)cn1  h-GABA-A α5β3γ2 (Homo sapiens, UniProt P18507+P31644)                2.25
 8  Cc1ccc(-c2noc(C)c2Cn2ncc(N3CC4(C3)CN(C3CC3)C4)cc2=O)cn1  h-GABA-A α5β3γ2 (Homo sapiens, UniProt P18507+P31644)                3.09
 9  Cc1onc(-c2ccc(C(F)(F)F)nc2)c1Cn1ncc(N2CC(OCC(F)F)C2)cc1=O  h-GABA-A α5β3γ2 (Homo sapiens, UniProt P18507+P31644)                 2.4
10  Cc1ccc(-c2noc(C)c2Cn2ncc(N3CC(Oc4ccccc4)C3)cc2=O)cn1  h-GABA-A α5β3γ2 (Homo sapiens, UniProt P18507+P31644)                2.36
11  Cc1ccc(-c2noc(C)c2Cn2ncc(N3C[C@@H](C)O[C@@H](C)C3)cc2=O)cn1  h-GABA-A α5β3γ2 (Homo sapiens, UniProt P18507+P31644)                3.53
12  Cc1ccc(-c2noc(C)c2Cn2ncc(N3CCN(C(=O)C4CC4)CC3)cc2=O)cn1  h-GABA-A α5β3γ2 (Homo sapiens, UniProt P18507+P31644)                2.53
13  Cc1onc(-c2ccc(Cl)nc2)c1Cn1ncc(N2CC3(C[C@H](C)CCO3)C2)cc1=O  h-GABA-A α5β3γ2 (Homo sapiens, UniProt P18507+P31644)                1.73
14  Cc1onc(-c2ccc(Cl)nc2)c1Cn1ncc(N2CC3(CCCCO3)C2)cc1=O  h-GABA-A α5β3γ2 (Homo sapiens, UniProt P18507+P31644)                1.82
15  CCO[C@H]1CN(c2cnn(Cc3c(-c4ccc(Cl)nc4)noc3C)c(=O)c2)[C@H]1C  h-GABA-A α5β3γ2 (Homo sapiens, UniProt P18507+P31644)                2.24
16  Cc1ccc(-c2noc(C)c2Cn2ncc(N3CC4(CCC(C(F)(F)F)CO4)C3)cc2=O)nn1 (single isomer, unassigned) [Example 320]  h-GABA-A α5β3γ2 (Homo sapiens, UniProt P18507+P31644)                3.26
17  CC1(C(=O)N2CCN(c3cnn(Cc4c(-c5ccc(Cl)cn5)noc4C4CC4)c(=O)c3)CC2)CC1  h-GABA-A α5β3γ2 (Homo sapiens, UniProt P18507+P31644)                3.47
18  Cc1ccc(-c2noc(C)c2Cn2ncc(N3CC(OC(C)(C)C)C3)cc2=O)nn1  h-GABA-A α5β3γ2 (Homo sapiens, UniProt P18507+P31644)                1.93
19  Cc1cc(-c2noc(C)c2Cn2ncc(N3CC4(CCCO4)C3)cc2=O)no1  h-GABA-A α5β3γ2 (Homo sapiens, UniProt P18507+P31644)                1.48
20  Cc1ccc(-c2noc(C)c2Cn2ncc(N3C4COCC3C4)cc2=O)cn1  h-GABA-A α5β3γ2 (Homo sapiens, UniProt P18507+P31644)                 2.5
21  Cc1ccc(-c2noc(C)c2Cn2ncc(-c3cnn(CC4(C)COC4)c3)cc2=O)cn1  h-GABA-A α5β3γ2 (Homo sapiens, UniProt P18507+P31644)                2.03
22  CCCn1cc(-c2cnn(Cc3c(-c4ccc(C)nc4)noc3C)c(=O)c2)cn1  h-GABA-A α5β3γ2 (Homo sapiens, UniProt P18507+P31644)                2.43
23  Cc1ccc(-c2noc(C)c2Cn2ncc(N3CC4(C[C@H](OC(F)F)CO4)C3)cc2=O)nn1  h-GABA-A α5β3γ2 (Homo sapiens, UniProt P18507+P31644)                 2.3
24  Cc1ccc(-c2noc(C)c2Cn2ncc(N3CC4(C[C@H](O)CO4)C3)cc2=O)cn1  h-GABA-A α5β3γ2 (Homo sapiens, UniProt P18507+P31644)                2.05
25  Cc1nonc1N1CCN(c2cnn(Cc3c(-c4ccc(Cl)nc4)noc3C)c(=O)c2)CC1  h-GABA-A α5β3γ2 (Homo sapiens, UniProt P18507+P31644)                2.66
26  Cc1onc(-c2ccc(Cl)nc2)c1Cn1ncc(N2CC3(CCC(C(F)(F)F)CO3)C2)cc1=O (single isomer, unassigned)  h-GABA-A α5β3γ2 (Homo sapiens, UniProt P18507+P31644)                1.76
27  Cc1ccc(-c2noc(C(F)F)c2Cn2ncc(N3C[C@@H](C)O[C@@H](C)C3)cc2=O)cn1  h-GABA-A α5β3γ2 (Homo sapiens, UniProt P18507+P31644)                3.09
28  Cc1ccc(-c2noc(C)c2Cn2ncc(N3CCN(C4CC4)CC3)cc2=O)cn1  h-GABA-A α5β3γ2 (Homo sapiens, UniProt P18507+P31644)                2.45
29  O=C(C1CC1)N1CCN(c2cnn(Cc3c(-c4ccc(Cl)cn4)noc3C3CC3)c(=O)c2)CC1  h-GABA-A α5β3γ2 (Homo sapiens, UniProt P18507+P31644)                3.66
30  Cc1onc(-c2ncc(C(F)(F)F)cn2)c1Cn1ncc(N2CC3(CCC(F)CO3)C2)cc1=O (single isomer, unassigned)  h-GABA-A α5β3γ2 (Homo sapiens, UniProt P18507+P31644)                1.65
